Parameter: IC50 at 48 h. Scope: all listed entries.
assay.info: Cytotoxicity against human RWPE-1 cells assessed as reduction in cell viability incubated for 48 hrs by SRB assay
Type: toxicity, cell-based
Value expressed in µM; do not type the unit.

Example cases with answers are listed next.
CCOC(=O)c1cc2c(nc1-c1ccccc1)[C@@]1(C)CC[C@H]3[C@@H](CC=C4C[C@@H](OC(C)=O)CC[C@@]43C)[C@@H]1C2: 375
CCOC(=O)c1cc2c(nc1C(=O)OCC)[C@@]1(C)CC[C@H]3[C@@H](CC=C4C[C@@H](OC(C)=O)CC[C@@]43C)[C@@H]1C2: 218

Noted for CCOC(=O)c1cc2c(nc1-c1ccccc1)[C@@]1(C)CC[C@H]3[C@@H](CC=C4C[C@@H](O)CC[C@@]43C)[C@@H]1C2 : its IC50 at 48 h reads 189

Noted for CCOC(=O)c1cc2c(nc1C(=O)OCC)[C@@]1(C)CC[C@H]3[C@@H](CC=C4C[C@@H](O)CC[C@@]43C)[C@@H]1C2 : its IC50 at 48 h reads 501

Noted for C[C@]12CC[C@H](O)CC1=CC[C@@H]1[C@@H]2CC[C@]2(C)C(c3cccnc3)=CC[C@@H]12 : its IC50 at 48 h reads 645

---

Parameter: IC50. Scope: all listed entries.
Test system: MCF7
assay.info: Cytotoxicity against human MCF7 cells assessed as reduction in cell viability incubated for 72 hrs by MTT assay
Type: functional, cell-based
study.conditions: MCF7, 72 h
Value expressed in µM; do not type the unit.

Noted for COc1ccc(-c2cc([C@H]3CC[C@H]4[C@@H]5CC=C6C[C@@H](O)CC[C@]6(C)[C@H]5CC[C@]34C)nc(N)c2C#N)cc1 : its IC50 reads 51.1

---

System: HepG2
assay.info: Antiproliferative activity against human HepG2 cells assessed as reduction in cell growth incubated for 48 hrs by MTT assay
Assay type: functional, cell-based
study.conditions: HepG2, 48 h
reported.metric: pIC50
# pIC50 is unitless: minus log10 of the molar concentration; print number only

C[C@]12CC[C@H]3[C@@H](CC=C4C[C@@H](O)CC[C@@]43C)[C@@H]1CC[C@@H]2c1cc(-c2cccc(Br)c2)c(C#N)c(N)n1: 4.38

Noted for C[C@]12CC[C@H]3[C@@H](CC=C4C[C@@H](O)CC[C@@]43C)[C@@H]1CC[C@@H]2c1cc(-c2cccc(OCc3ccccc3)c2)c(C#N)c(N)n1 : its pIC50 reads 4.67

Noted for C[C@]12CC[C@H]3[C@@H](CC=C4C[C@@H](O)CC[C@@]43C)[C@@H]1CC[C@@H]2c1cc(-c2ccccc2Br)c(C#N)c(N)n1 : its pIC50 reads 4.55

Noted for COc1ccc(-c2cc([C@H]3CC[C@H]4[C@@H]5CC=C6C[C@@H](O)CC[C@]6(C)[C@H]5CC[C@]34C)nc(N)c2C#N)cc1OC : its pIC50 reads 4.26

---

Parameter: LD50 at 336 h. Scope: all listed entries.
assay.info: Acute toxicity in ip dosed albino rat administered twice daily for 14 days
Format: organism-based
study.conditions: in vivo, time 14 day
Value expressed in mg/kg; do not type the unit.

Example cases with answers are listed next.
C[C@]12CC[C@H](O)C[C@@H]1CC[C@@H]1[C@@H]2CC[C@]2(C)c3c(c(-c4ccc(Cl)cc4)[nH]c(=O)c3C#N)C[C@@H]12: 4920
C[C@]12CC[C@H]3[C@@H](CCC4=CC(=O)CC[C@@]43C)[C@@H]1CC[C@@H]2O: 2750
C[C@]12CC[C@H](O)C[C@@H]1CC[C@@H]1[C@@H]2CC[C@]2(C)c3c(C#N)c(S)nc(-c4ccccc4)c3C[C@@H]12: 4910
CCOc1nc(-c2ccc(F)cc2)c2c(c1C#N)[C@@]1(C)CC[C@H]3[C@@H](CC[C@H]4C[C@@H](O)CC[C@@]43C)[C@@H]1C2: 4890
C[C@]12CC[C@H](O)C[C@@H]1CC[C@@H]1[C@@H]2CC[C@]2(C)c3c(C#N)c(S)nc(-c4ccc(Cl)cc4)c3C[C@@H]12: 4910

# evaluate next
Noted for CCOC1(OCC)NC(c2ccc(F)cc2)=C2C[C@H]3[C@@H]4CC[C@H]5C[C@@H](O)CC[C@]5(C)[C@H]4CC[C@]3(C)C2=C1C#N : its LD50 at 336 h reads 4900

---

Parameter: CC50 at 48 h. Scope: all listed entries.
assay.info: Cytotoxicity against human HEp-2 cells assessed as reduction in cell viability incubated for 48 hrs by MTT assay
Format: toxicity, cell-based
Value expressed in µM; do not type the unit.

Example cases with answers are listed next.
CC(=O)O[C@H]1CC[C@@]2(C)C(=CC[C@H]3[C@@H]4CC[C@H](c5cc(-c6c(F)cccc6F)c(C#N)c(N)n5)[C@@]4(C)CC[C@@H]32)C1: 374
CC(=O)O[C@H]1CC[C@@]2(C)C(=CC[C@H]3[C@@H]4CC[C@H](c5cc(-c6ccccc6Cl)c(C#N)c(N)n5)[C@@]4(C)CC[C@@H]32)C1: 303
CC(=O)O[C@H]1CC[C@@]2(C)C(=CC[C@H]3[C@@H]4CC[C@H](c5cc(-c6ccc(C#N)cc6)c(C#N)c(N)n5)[C@@]4(C)CC[C@@H]32)C1: 39.3

Noted for CC(=O)O[C@H]1CC[C@@]2(C)C(=CC[C@H]3[C@@H]4CC[C@H](c5cc(-c6ccnc(Br)c6)c(C#N)c(N)n5)[C@@]4(C)CC[C@@H]32)C1 : its CC50 at 48 h reads 539

Noted for CC(=O)O[C@H]1CC[C@@]2(C)C(=CC[C@H]3[C@@H]4CC[C@H](c5cc(-c6cccc(Cl)c6)c(C#N)c(N)n5)[C@@]4(C)CC[C@@H]32)C1 : its CC50 at 48 h reads 181

Noted for COc1cccc(-c2cc([C@H]3CC[C@H]4[C@@H]5CC=C6C[C@@H](OC(C)=O)CC[C@]6(C)[C@H]5CC[C@]34C)nc(N)c2C#N)c1 : its CC50 at 48 h reads 160

Noted for CC(=O)O[C@H]1CC[C@@]2(C)C(=CC[C@H]3[C@@H]4CC[C@H](c5cc(-c6ccccc6F)c(C#N)c(N)n5)[C@@]4(C)CC[C@@H]32)C1 : its CC50 at 48 h reads 288

---

Tested on: ECa-109 cell line
assay.info: Cytotoxicity against human Eca-109 cells assessed as reduction in cell viability incubated for 72 hrs by MTT assay
Assay type: functional, cell-based
study.conditions: ECa-109, 72 h
reported.metric: pIC50
# pIC50 is unitless: minus log10 of the molar concentration; print number only

Noted for C[C@]12CC[C@H]3[C@@H](CC=C4C[C@@H](O)CC[C@@]43C)[C@@H]1CC[C@@H]2c1cc(-c2ccc(Cl)cc2)c(C#N)c(N)n1 : its pIC50 reads 4.31

Noted for COc1ccccc1-c1cc([C@H]2CC[C@H]3[C@@H]4CC=C5C[C@@H](O)CC[C@]5(C)[C@H]4CC[C@]23C)nc(N)c1C#N : its pIC50 reads 4.71

Noted for C[C@]12CC[C@H]3[C@@H](CC=C4C[C@@H](O)CC[C@@]43C)[C@@H]1CC[C@@H]2c1cc(-c2ccnc(Br)c2)c(C#N)c(N)n1 : its pIC50 reads 4.65

---

Parameter: EC50. Scope: all listed entries.
System: Respiratory syncytial virus
assay.info: Antiviral activity against Respiratory syncytial virus infected in human HEp-2 cells assessed as inhibition of virus-induced cytopathic effect measured after 6 days by CellTiter-Glo assay
Assay type: functional, organism-based
study.conditions: HEp-2, 144 h
# include the unit after the value

Example cases with answers are listed next.
NC(=O)c1ncn([C@@H]2O[C@H](CO)[C@@H](O)[C@H]2O)n1: 20.1 µM
CC(=O)O[C@H]1CC[C@@]2(C)C(=CC[C@H]3[C@@H]4CC[C@H](c5cc(-c6ccnc(Br)c6)c(C#N)c(N)n5)[C@@]4(C)CC[C@@H]32)C1: 3.13 µM
CC(=O)O[C@H]1CC[C@@]2(C)C(=CC[C@H]3[C@@H]4CC[C@H](c5cc(-c6ccccc6Cl)c(C#N)c(N)n5)[C@@]4(C)CC[C@@H]32)C1: 14.1 µM

Noted for CC(=O)O[C@H]1CC[C@@]2(C)C(=CC[C@H]3[C@@H]4CC[C@H](c5cc(-c6ccccc6F)c(C#N)c(N)n5)[C@@]4(C)CC[C@@H]32)C1 : its EC50 reads 12.4 µM

---

Parameter: IC50. Scope: all listed entries.
System: ECa-109 cell line
assay.info: Cytotoxicity against human Eca-109 cells assessed as reduction in cell viability incubated for 72 hrs by MTT assay
Type: functional, cell-based
study.conditions: ECa-109, 72 h
Value expressed in µM; do not type the unit.

Example cases with answers are listed next.
C[C@]12CC[C@H]3[C@@H](CC=C4C[C@@H](O)CC[C@@]43C)[C@@H]1CC[C@@H]2c1cc(-c2ccccc2F)c(C#N)c(N)n1: 17.8
C[C@]12CC[C@H]3[C@@H](CC=C4C[C@@H](O)CC[C@@]43C)[C@@H]1CC[C@@H]2c1cc(-c2ccccc2Cl)c(C#N)c(N)n1: 30.1

# evaluate next
Noted for C[C@]12CC[C@H]3[C@@H](CC=C4C[C@@H](O)CC[C@@]43C)[C@@H]1CC[C@@H]2c1cc(-c2ccc(F)cc2F)c(C#N)c(N)n1 : its IC50 reads 58

These entries and their values trace back to ChEMBL document CHEMBL5329192.
